Target: Monoglyceride lipase (Rattus norvegicus, UniProt Q8R431)
Sequence (Q8R431 whole entry): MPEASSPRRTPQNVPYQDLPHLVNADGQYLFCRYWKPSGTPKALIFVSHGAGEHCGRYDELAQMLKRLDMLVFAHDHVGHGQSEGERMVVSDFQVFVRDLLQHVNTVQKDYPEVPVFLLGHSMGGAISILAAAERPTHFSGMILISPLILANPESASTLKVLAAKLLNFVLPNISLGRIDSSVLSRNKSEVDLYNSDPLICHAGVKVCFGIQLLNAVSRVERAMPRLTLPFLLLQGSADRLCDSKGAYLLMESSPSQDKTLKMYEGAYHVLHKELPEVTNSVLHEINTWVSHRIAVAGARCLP
Assay: Inhibition of rat MAGL
Result type: pIC50
// pIC50: -log10(molar conc.)

Task: Param item = O=C1[C@H](c2ccc(F)cc2)[C@@H](c2ccc3c(c2)OCO3)N1C1CCN(C(=O)n2cncn2)CC1 (racemic) ; retrieve measured pIC50.
Output: 9.60
